Entries annotated with measured LC50 (concentration killing 50% of cells)
system: KM12; assay: Cytotoxicity against human KM12 cells after 48 hrs by SRB assay; format: functional; settings: KM12, 48 h

Worked examples follow.
Smiles Input: O=C1c2ccccc2C(=O)c2c1cc(SCc1ccccc1)c1nsnc21
Observed Result: > 50 µM

Smiles Input: O=C1c2ccccc2C(=O)c2c1cc(Sc1ccccc1Br)c1nsnc21
Observed Result: > 50 µM

The record that follows has no LC50 (concentration killing 50% of cells) shown yet.
Entry `O=C1c2ccccc2C(=O)c2c1cc(Sc1ccc(F)cc1F)c1nsnc21` — recorded LC50 (concentration killing 50% of cells) = > 100 µM

###

test system: NCI-H522; assay: Cytotoxicity against human NCI-H522 cells assessed as cell growth at 10 uM after 48 hrs by SRB assay relative to control; type: functional; details: NCI-H522, 48 h, read-out: Activity
Readout Kind: growth at 10 µM

Smiles Input: O=C1c2ccccc2C(=O)c2c1cc(SCc1ccc(Cl)cc1)c1nsnc21
growth at 10 µM: 82.6%
//
Smiles Input: CSc1ccc(Sc2cc3c(c4nsnc24)C(=O)c2ccccc2C3=O)cc1
growth at 10 µM: 95.4%
//
Smiles Input: O=C1c2ccccc2C(=O)c2c1cc(Sc1cc(Cl)ccc1Cl)c1nsnc21
growth at 10 µM: 91.3%

The record that follows has no growth at 10 µM shown yet.
Assay NCI-H522, sample `COc1ccc(Sc2cc3c(c4nsnc24)C(=O)c2ccccc2C3=O)cc1` , growth at 10 µM read: 95.7%

###

system: K562; assay: Cytotoxicity against human K562 cells assessed as cell growth at 10 uM after 48 hrs by SRB assay relative to control; format: functional; conditions: K562, 48 h, read-out: Activity
Readout Kind: growth at 10 µM
Form field: result (number plus unit)

Worked examples follow.
Smiles Input: CSc1ccc(Sc2cc3c(c4nsnc24)C(=O)c2ccccc2C3=O)cc1
growth at 10 µM: 67.5%
--
Smiles Input: Cc1cc(C)cc(Sc2cc3c(c4nsnc24)C(=O)c2ccccc2C3=O)c1
growth at 10 µM: 75.6%
--
Smiles Input: O=C1c2ccccc2C(=O)c2c1cc(Sc1ccccc1Br)c1nsnc21
growth at 10 µM: 29.7%

The record that follows has no growth at 10 µM shown yet.
Entry `Cc1ccc(Sc2cc3c(c4nsnc24)C(=O)c2ccccc2C3=O)c(C)c1` — recorded growth at 10 µM = 68%
